- Procedure Details: Cytotoxicity against human SNK6 cells assessed as reduction in cell viability after 48 hrs by CCK8 assay
- Assay type: functional, cell-based
- Setup Conditions: SNK6, 48 h
Readout Type: IC50

>>> print(df.to_string())
                             compound_smiles  reported_measurement
 0     COc1cc2ccnc3c2c(c1OC)NC=C3c1cccc(O)c1               > 20 µM
 1  COc1c(OC)c2c3c(nccc3c1-c1cccc(C(C)C)c1)C=CN2               > 20 µM
 2     COc1cc2ccnc3c2c(c1OC)NC=C3c1cccc(C)c1               > 20 µM
 3  COc1c(OC)c2c3c(nccc3c1-c1cccc(C(C)C)c1)C(c1cccc(C(C)C)c1)=CN2               > 20 µM
 4  COc1c(OC)c2c3c(nccc3c1-c1ccc(C(F)(F)F)cc1)C=CN2               > 20 µM
 5  COc1cc2ccnc3c2c(c1OC)NC=C3c1cccc2ccccc12               > 20 µM
 6     COc1c(OC)c2c3c(nccc3c1-c1ccccc1)C=CN2               > 20 µM
 7  COc1c(OC)c2c3c(nccc3c1-c1cccc(C)c1)C(c1cccc(C)c1)=CN2                0.6 µM
 8  COc1c(OC)c2c3c(nccc3c1-c1cc(C)cc(C)c1)C(c1cc(C)cc(C)c1)=CN2                3.1 µM
 9  COc1c(OC)c2c3c(nccc3c1-c1cccc(C(F)(F)F)c1)C=CN2                4.3 µM
10  COc1c(OC)c2c3c(nccc3c1-c1cccc3ccccc13)C(c1cccc3ccccc13)=CN2               > 20 µM
11  COc1cc2ccnc3c2c(c1OC)NC=C3c1cccc(C(C)C)c1                8.4 µM
12  COc1c(OC)c2c3c(nccc3c1-c1ccccc1)C(c1ccccc1)=CN2               > 20 µM
